B1: LPCAT4 (parent)
chain: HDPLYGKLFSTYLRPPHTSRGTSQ

- Variants of: B1
- assay.notes: protein stability index of a GFP-peptide fusion (GPS, HEK-293T) (PSI 1-6); higher = more stable;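 further: lentivirally expressed fusions sorted by FACS into six bins by GFP to DsRed ratio, PSI derived from sequencing read proportions per bin multiplied by bin number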
- recorded.conditions: c terminus: a fixed tail appended
reported.metric: protein stability index

- mutation.spec: "T11N"
  reported.metric: "protein stability index"
  recorded.result: 3.02
- mutation.spec: "L8D"
  reported.metric: "protein stability index"
  recorded.result: 4.88
- mutation.spec: "G21P"
  reported.metric: "protein stability index"
  recorded.result: 2.56
- mutation.spec: "T11S"
  reported.metric: "protein stability index"
  recorded.result: 2.63
- mutation.spec: "H1L"
  reported.metric: "protein stability index"
  recorded.result: 4.22
- mutation.spec: "L13I"
  reported.metric: "protein stability index"
  recorded.result: 3.06
- mutation.spec: "S10R"
  reported.metric: "protein stability index"
  recorded.result: 3.02
- mutation.spec: "T22Q"
  reported.metric: "protein stability index"
  recorded.result: 2.32
- mutation.spec: "R14A"
  reported.metric: "protein stability index"
  recorded.result: 3.08
- mutation.spec: "L13G"
  reported.metric: "protein stability index"
  recorded.result: 3.62
- mutation.spec: "L8Y"
  reported.metric: "protein stability index"
  recorded.result: 2.58
- mutation.spec: "D2H"
  reported.metric: "protein stability index"
  recorded.result: 2.19
- mutation.spec: "L13D"
  reported.metric: "protein stability index"
  recorded.result: 4.11
- mutation.spec: "D2G"
  reported.metric: "protein stability index"
  recorded.result: 2.56
- mutation.spec: "L4G"
  reported.metric: "protein stability index"
  recorded.result: 3.3
- mutation.spec: "R20M"
  reported.metric: "protein stability index"
  recorded.result: 2.08
- mutation.spec: "P3I"
  reported.metric: "protein stability index"
  recorded.result: 2.29
- mutation.spec: "P3K"
  reported.metric: "protein stability index"
  recorded.result: 2.54
- mutation.spec: "G6P"
  reported.metric: "protein stability index"
  recorded.result: 3.46
- mutation.spec: "F9L"
  reported.metric: "protein stability index"
  recorded.result: 3.54
- mutation.spec: "G6S"
  reported.metric: "protein stability index"
  recorded.result: 1.27
- mutation.spec: "T18L"
  reported.metric: "protein stability index"
  recorded.result: 2.42
- mutation.spec: "P16L"
  reported.metric: "protein stability index"
  recorded.result: 2.68
- mutation.spec: "L4A"
  reported.metric: "protein stability index"
  recorded.result: 2.32
- mutation.spec: "K7Q"
  reported.metric: "protein stability index"
  recorded.result: 3.12
- mutation.spec: "D2K"
  reported.metric: "protein stability index"
  recorded.result: 2.63
- mutation.spec: "R20T"
  reported.metric: "protein stability index"
  recorded.result: 2.67
- mutation.spec: "Y5D"
  reported.metric: "protein stability index"
  recorded.result: 3.92
- mutation.spec: "F9D"
  reported.metric: "protein stability index"
  recorded.result: 4.41
- mutation.spec: "G21A"
  reported.metric: "protein stability index"
  recorded.result: 2.95
- mutation.spec: "Q24I"
  reported.metric: "protein stability index"
  recorded.result: 2.11
- mutation.spec: "S10T"
  reported.metric: "protein stability index"
  recorded.result: 3.63
- mutation.spec: "L4R"
  reported.metric: "protein stability index"
  recorded.result: 1.58
- mutation.spec: "P15K"
  reported.metric: "protein stability index"
  recorded.result: 2.6
- mutation.spec: "L13N"
  reported.metric: "protein stability index"
  recorded.result: 4.16
- mutation.spec: "Y12F"
  reported.metric: "protein stability index"
  recorded.result: 2.8
- mutation.spec: "S19I"
  reported.metric: "protein stability index"
  recorded.result: 2.79
- mutation.spec: "G6Y"
  reported.metric: "protein stability index"
  recorded.result: 2.42
- mutation.spec: "S23N"
  reported.metric: "protein stability index"
  recorded.result: 2.77
- mutation.spec: "H1Q"
  reported.metric: "protein stability index"
  recorded.result: 3.18
- mutation.spec: "T18Q"
  reported.metric: "protein stability index"
  recorded.result: 2.61
- mutation.spec: "R20W"
  reported.metric: "protein stability index"
  recorded.result: 2.2
- mutation.spec: "R20Q"
  reported.metric: "protein stability index"
  recorded.result: 2.85
- mutation.spec: "L8E"
  reported.metric: "protein stability index"
  recorded.result: 4.85
- mutation.spec: "P16T"
  reported.metric: "protein stability index"
  recorded.result: 2.76
- mutation.spec: "P16E"
  reported.metric: "protein stability index"
  recorded.result: 3.19
- mutation.spec: "H17V"
  reported.metric: "protein stability index"
  recorded.result: 2.53
- mutation.spec: "T22H"
  reported.metric: "protein stability index"
  recorded.result: 2.81
- mutation.spec: "L4Y"
  reported.metric: "protein stability index"
  recorded.result: 2.69
- mutation.spec: "Q24L"
  reported.metric: "protein stability index"
  recorded.result: 2.29
- mutation.spec: "G21D"
  reported.metric: "protein stability index"
  recorded.result: 3.4
- mutation.spec: "P16V"
  reported.metric: "protein stability index"
  recorded.result: 2.46
- mutation.spec: "Q24C"
  reported.metric: "protein stability index"
  recorded.result: 2.64
- mutation.spec: "T18P"
  reported.metric: "protein stability index"
  recorded.result: 2.45
- mutation.spec: "G6R"
  reported.metric: "protein stability index"
  recorded.result: 1.76
- mutation.spec: "F9C"
  reported.metric: "protein stability index"
  recorded.result: 3.71
- mutation.spec: "F9E"
  reported.metric: "protein stability index"
  recorded.result: 4.54
- mutation.spec: "G21H"
  reported.metric: "protein stability index"
  recorded.result: 2.11
- mutation.spec: "T11H"
  reported.metric: "protein stability index"
  recorded.result: 3.05
- mutation.spec: "Y5S"
  reported.metric: "protein stability index"
  recorded.result: 3.21
- mutation.spec: "Y12P"
  reported.metric: "protein stability index"
  recorded.result: 4.14
- mutation.spec: "P16H"
  reported.metric: "protein stability index"
  recorded.result: 2.52
- mutation.spec: "T18V"
  reported.metric: "protein stability index"
  recorded.result: 2.68
- mutation.spec: "T18A"
  reported.metric: "protein stability index"
  recorded.result: 2.52
- mutation.spec: "T11G"
  reported.metric: "protein stability index"
  recorded.result: 2.49
- mutation.spec: "R14D"
  reported.metric: "protein stability index"
  recorded.result: 3.9
- mutation.spec: "H1A"
  reported.metric: "protein stability index"
  recorded.result: 4.01
- mutation.spec: "S10D"
  reported.metric: "protein stability index"
  recorded.result: 4.06
- mutation.spec: "P3C"
  reported.metric: "protein stability index"
  recorded.result: 2.17
- mutation.spec: "S10V"
  reported.metric: "protein stability index"
  recorded.result: 2.64
- mutation.spec: "Q24D"
  reported.metric: "protein stability index"
  recorded.result: 3.28
- mutation.spec: "G21S"
  reported.metric: "protein stability index"
  recorded.result: 2.67
- mutation.spec: "D2V"
  reported.metric: "protein stability index"
  recorded.result: 1.85
- mutation.spec: "K7T"
  reported.metric: "protein stability index"
  recorded.result: 3.43
- mutation.spec: "T22L"
  reported.metric: "protein stability index"
  recorded.result: 2.81
- mutation.spec: "P15G"
  reported.metric: "protein stability index"
  recorded.result: 3.2
- mutation.spec: "L8V"
  reported.metric: "protein stability index"
  recorded.result: 3.62
- mutation.spec: "G6L"
  reported.metric: "protein stability index"
  recorded.result: 2.18
- mutation.spec: "T18Y"
  reported.metric: "protein stability index"
  recorded.result: 2.29
- mutation.spec: "D2Y"
  reported.metric: "protein stability index"
  recorded.result: 2.62
- mutation.spec: "P3A"
  reported.metric: "protein stability index"
  recorded.result: 2.5

Reference source: the supplement of paper PMC10567573
